# Test system: NCI-H522 lung
# ASSAY SUMMARY: NCI tumour cell line growth inhibition, 48 h
OBSERVATION TYPE: TGI

Ask: Give the reported TGI for this molecule. CC(=O)OCC1OC(n2c(-c3ccc(C)cc3)cc(-c3ccccc3)c(C#N)c2=O)C(OC(C)=O)C(OC(C)=O)C1OC(C)=O (stereo not drawn)
Reply: > 100 µM

Ask: Give the reported TGI for this molecule. O=c1c2cc(Cl)ccc2sc2cccc(Cl)c12
Reply: > 100 µM

Ask: Give the reported TGI for this molecule. O=C1C(Cl)=C(NCc2ccco2)C(=O)c2ccccc21
Reply: > 55.2 µM

Ask: Give the reported TGI for this molecule. CCOC(=O)c1c(N2CCOCC2)[nH]c(=O)c(C(c2ccco2)c2c(O)c(C(=O)OCC)c(N3CCOCC3)[nH]c2=O)c1O
Reply: > 100 µM

Ask: Give the reported TGI for this molecule. Cc1ccc(S(=O)(=O)N2CCCSCC2)cc1
Reply: > 100 µM

Ask: Give the reported TGI for this molecule. N#CC1CCCCCCCCCCC(=O)N(CCCl)C1=O (stereo not drawn)
Reply: > 100 µM

Ask: Give the reported TGI for this molecule. COC(C)(C)C/C=C/C(C)=C/C=C/C(C)=C\C=C\C(C)=C\C=C\C=C(C)\C=C\C=C(C)\C=C\C=C(C)\C=C\CC(C)(C)OC
Reply: > 150 µg/mL

Ask: Give the reported TGI for this molecule. Cc1ccc2c(c1)-c1nc(N)c(C#N)c(-c3ccccc3)c1CCS2(=O)=O
Reply: > 100 µM
